testProtocol: Solubility/stability at different pH's, chemiluminescent nitrogen detector (C.3.b)
Type: physicochemical
appliedConditions: aqueous buffer; pH = 2.3
recordedMetric: solubility (µg/mL)

Take a look at these entries with their results.
molecule: CCN(Cc1cn(C)c2ccccc12)CC1CCN(c2ncc(C(=O)NO)cn2)CC1 [Compound 68]
numericValue: 2500

molecule: COc1cc2c(CNCC3CCN(c4ncc(C(=O)NO)cn4)CC3)cn(C)c2cc1OC [Compound 60]
numericValue: 3100

1 = Cn1cc(CNCC2CCN(c3ncc(C(=O)NO)cn3)CC2)c2cc(Cl)ccc21 [Compound 32]
2 = Cc1ccc2c(CNCC3CCN(c4ncc(C(=O)NO)cn4)CC3)cn(C)c2c1 [Compound 79]
For this pair, 1 and 2 , which shows a numerically higher solubility? Could you answer with the label of the item you picked?
2
(2: 2700 µg/mL, 1: 1500 µg/mL)

---

Test system: A2780 ovarian carcinoma cells
testProtocol: Antiproliferative activity on A2780 cells, MTT (C.2)
Type: cell-based
appliedConditions: Homo sapiens, 96 h, four days of incubation, read-out: Cellular activity pIC50 C.2 (converted)
recordedMetric: IC50 (µM)

I = O=C(NO)c1cnc(N2CCC(CNCc3c[nH]c4ccccc34)CC2)nc1
II = Cc1ccc2c(c1)c(CNCC1CCN(c3ncc(C(=O)NO)cn3)CC1)cn2C
III = CCC(=O)N(CCc1cn(C)c2cc(OC)ccc12)CC1CCN(c2ncc(C(=O)NO)cn2)CC1
IV = Cn1cc(CCNCC2CCN(c3ncc(C(=O)NO)cn3)CC2)c2cc(Cl)ccc21
V = COc1cc2c(CNCC3CCN(c4ncc(C(=O)NO)cn4)CC3)cn(C)c2cc1OC
Please rank everything listed above by IC50, with the minimum value first. Provide the labels, sequenced as the question asks.
II, IV, I, V, III
(II: 0.00251 µM, IV: 0.0316 µM, I: 0.0794 µM, V: 0.126 µM, III: 0.316 µM)

---

targetOrTestSystem: histone deacetylase (HeLa nuclear extracts)
testProtocol: In vitro assay for inhibition of histone deacetylase with fluorescent-labelled substrate (C.1.b)
Format: biochemical
appliedConditions: Fluor de Lys substrate
recordedMetric: Enzymatic activity pIC50 C.1.b

chemicalStructure: CCC(=O)N(CCc1cn(C)c2ccccc12)CC1CCN(c2ncc(C(=O)NO)cn2)CC1
Enzymatic activity pIC50 C.1.b: 8.5
--
chemicalStructure: Cn1cc(CNCC2CCN(c3ncc(C(=O)NO)cn3)CC2)c2cccc(F)c21
Enzymatic activity pIC50 C.1.b: 9.0
--
chemicalStructure: CCN(Cc1cn(CC)c2ccccc12)CC1CCN(c2ncc(C(=O)NO)cn2)CC1
Enzymatic activity pIC50 C.1.b: 9.5

---

testProtocol: Solubility/stability at different pH's, chemiluminescent nitrogen detector (C.3.b)
Type: physicochemical
appliedConditions: aqueous buffer; pH = 2.3
recordedMetric: solubility (µg/mL)

Take a look at these entries with their results.
chemicalStructure: Cn1cc(CNCC2CCN(c3ncc(C(=O)NO)cn3)CC2)c2cccc(F)c21
numericValue: 2100
--
chemicalStructure: CCN(CCc1cn(C)c2ccccc12)CC1CCN(c2ncc(C(=O)NO)cn2)CC1
numericValue: 1700

I = CN(Cc1cn(C)c2ccccc12)CC1CCN(c2ncc(C(=O)NO)cn2)CC1
II = COCCn1cc(CNCC2CCN(c3ncc(C(=O)NO)cn3)CC2)c2ccccc21
For this pair, I and II , which shows a numerically higher solubility? Could you answer with the label of the item you picked?
II
(II: 4000 µg/mL, I: 1900 µg/mL)

1 = CCN(Cc1cn(CC)c2ccccc12)CC1CCN(c2ncc(C(=O)NO)cn2)CC1
2 = CCN(CCc1cn(C)c2ccc(Cl)cc12)CC1CCN(c2ncc(C(=O)NO)cn2)CC1
Which has the smaller recorded solubility, 1 or 2 ? Could you answer with the label of the item you picked?
2

---

Test system: A2780 ovarian carcinoma cells
testProtocol: Antiproliferative activity on A2780 cells, MTT (C.2)
Type: cell-based
appliedConditions: Homo sapiens, 96 h, four days of incubation, read-out: Cellular activity pIC50 C.2 (converted)
recordedMetric: IC50 (nM)

chemicalStructure: Cc1ccc2[nH]cc(CNCC3CCN(c4ncc(C(=O)NO)cn4)CC3)c2c1
numericValue: 79.4

chemicalStructure: CCN(CCc1cn(C)c2ccccc12)CC1CCN(c2ncc(C(=O)NO)cn2)CC1
numericValue: 39.8

chemicalStructure: COc1ccc2[nH]cc(CNCC3CCN(c4ncc(C(=O)NO)cn4)CC3)c2c1
numericValue: 79.4

---

Test system: A2780 ovarian carcinoma cells
testProtocol: Antiproliferative activity on A2780 cells, MTT (C.2)
Format: cell-based
appliedConditions: Homo sapiens, 96 h, four days of incubation, read-out: Cellular activity pIC50 C.2 (converted)
recordedMetric: IC50 (µM)

chemicalStructure: O=C(NO)c1cnc(N2CCC(CNCc3cc4ccccc4o3)CC2)nc1
IC50, µM: 0.0316

chemicalStructure: CCn1cc(CNCC2CCN(c3ncc(C(=O)NO)cn3)CC2)c2ccc(OC)cc21
IC50, µM: 0.0251

chemicalStructure: O=C(NO)c1cnc(N2CCC(CNCCc3c[nH]c4ccc(Cl)cc34)CC2)nc1
IC50, µM: 0.158

1 = O=C(NO)c1cnc(N2CCC(CNCc3cn(C4CCCC4)c4ccccc34)CC2)nc1
2 = Cc1cccc2c(CNCC3CCN(c4ncc(C(=O)NO)cn4)CC3)c[nH]c12
Which has the smaller recorded IC50, 1 or 2 ? Could you answer with the label of the item you picked?
1
(1: 0.01 µM, 2: 0.0398 µM)

---

Tested on: A2780 ovarian carcinoma cells
testProtocol: Antiproliferative activity on A2780 cells, MTT (C.2)
Assay type: cell-based
appliedConditions: Homo sapiens, 96 h, four days of incubation, read-out: Cellular activity pIC50 C.2 (converted)
recordedMetric: IC50 (nM)

Take a look at these entries with their results.
chemicalStructure: Cn1ccc2cccc(CNCC3CCN(c4ncc(C(=O)NO)cn4)CC3)c21
targetOrTestSystem: A2780 ovarian carcinoma cells
unitsLabel: nM
IC50: 25.1
//
chemicalStructure: CC(C)n1cc(CNCC2CCN(c3ncc(C(=O)NO)cn3)CC2)c2ccccc21
targetOrTestSystem: A2780 ovarian carcinoma cells
unitsLabel: nM
IC50: 10
//
chemicalStructure: CCCn1cc(CCNCC2CCN(c3ncc(C(=O)NO)cn3)CC2)c2ccc(OC)cc21
targetOrTestSystem: A2780 ovarian carcinoma cells
unitsLabel: nM
IC50: 79.4
//
chemicalStructure: Cn1cc(CNCC2CCN(c3ncc(C(=O)NO)cn3)CC2)c2ccc(Cl)cc21
targetOrTestSystem: A2780 ovarian carcinoma cells
unitsLabel: nM
IC50: 25.1
//
chemicalStructure: CCC(CC)n1cc(CNCC2CCN(c3ncc(C(=O)NO)cn3)CC2)c2ccccc21
targetOrTestSystem: A2780 ovarian carcinoma cells
unitsLabel: nM
IC50: 31.6

1 = COc1ccc2c(c1)c(CNCC1CCN(c3ncc(C(=O)NO)cn3)CC1)cn2C
2 = CCCn1cc(CCN(CC)CC2CCN(c3ncc(C(=O)NO)cn3)CC2)c2ccc(OC)cc21
Which has the smaller recorded IC50, 1 or 2 ? Could you answer with the label of the item you picked?
1

a = CCn1cc(CNCC2CCN(c3ncc(C(=O)NO)cn3)CC2)c2ccccc21
b = Cc1ccc2c(CNCC3CCN(c4ncc(C(=O)NO)cn4)CC3)cn(C)c2c1
For this pair, a and b , which shows a numerically higher IC50? Could you answer with the label of the item you picked?
a
(a: 31.6 nM, b: 7.94 nM)

---

testProtocol: Solubility/stability at different pH's, chemiluminescent nitrogen detector (C.3.b)
Type: physicochemical
appliedConditions: aqueous buffer; pH = 2.3
recordedMetric: solubility (mg/mL)

Take a look at these entries with their results.
compound: Cn1ccc2ccc(CNCC3CCN(c4ncc(C(=O)NO)cn4)CC3)cc21 [Compound 50]
recordedMetric: solubility
unitsLabel: mg/mL
numericValue: 2.4

compound: Cn1cc(CNCC2CCN(c3ncc(C(=O)NO)cn3)CC2)c2ccccc21 [Compound 1a]
recordedMetric: solubility
unitsLabel: mg/mL
numericValue: 1.4

compound: O=C(NO)c1cnc(N2CCC(CNCc3c[nH]c4ccccc34)CC2)nc1 [Compound 8]
recordedMetric: solubility
unitsLabel: mg/mL
numericValue: 2.4

compound: Cn1ccc2cccc(CNCC3CCN(c4ncc(C(=O)NO)cn4)CC3)c21 [Compound 57]
recordedMetric: solubility
unitsLabel: mg/mL
numericValue: 2.8

compound: Cn1ccc2cc(CNCC3CCN(c4ncc(C(=O)NO)cn4)CC3)ccc21 [Compound 44]
recordedMetric: solubility
unitsLabel: mg/mL
numericValue: 1.8

I = Cn1cc(CNCC2CCN(c3ncc(C(=O)NO)cn3)CC2)c2c(F)cccc21 [Compound 39]
II = Cn1ccc2c(CNCC3CCN(c4ncc(C(=O)NO)cn4)CC3)cccc21 [Compound 49]
For this pair, I and II , which shows a numerically higher solubility? Could you answer with the label of the item you picked?
II
